# targetOrTestSystem: NAD-dependent protein deacetylase sirtuin-2 (Homo sapiens) (UniProt Q8IXJ6)
# Sequence (whole entry): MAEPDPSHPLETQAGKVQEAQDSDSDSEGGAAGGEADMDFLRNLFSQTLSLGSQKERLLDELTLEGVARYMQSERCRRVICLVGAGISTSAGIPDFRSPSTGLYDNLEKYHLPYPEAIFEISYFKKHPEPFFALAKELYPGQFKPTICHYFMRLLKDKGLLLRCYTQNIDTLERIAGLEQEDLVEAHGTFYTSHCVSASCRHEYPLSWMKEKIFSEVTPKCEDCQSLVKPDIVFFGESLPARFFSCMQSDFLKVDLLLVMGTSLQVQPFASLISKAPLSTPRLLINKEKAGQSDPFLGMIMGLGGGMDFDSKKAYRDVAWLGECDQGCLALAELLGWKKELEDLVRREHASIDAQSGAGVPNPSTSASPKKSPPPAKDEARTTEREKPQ
# assaySummary: Inhibition of recombinant GST-tagged human SIRT2 expressed in Escherichia coli at 200 uM using FLUOR DE LYS SIRT2 as substrate preincubated with substrate for 5 mins followed by enzyme addition and measured after 1 hr in presence of NAD+ by fluorescence based assay relative to control
reportedProperty: inhibition (%)
Report the figure in % without appending any unit label.

Form field: reported inhibition of `CCCCC1=Cc2ccc(Br)cc2S(=O)(=O)N1` 29

Same lookup for `O=C1c2ccc(Br)cc2S(=O)(=O)N1CCc1cccc(Br)c1` , please. 15

Could you do the same for `O=c1cc(Cc2ccccc2)[nH]c2c(Br)cc(Cl)cc12` , please? 58

Do the same for O=S1(=O)NC(CCc2cccc(Br)c2)Nc2c(Br)cc(Br)cc21 (stereo unspecified) please 59

Now try `O=S1(=O)N=C(CCc2ccccc2)Nc2c(Br)cc(Br)cc21` . 15

Ok, now `CCOC(=O)CCCN1C(=O)c2ccccc2S1(=O)=O` 13

Would you kindly repeat that for `CCCCCc1cc(=O)c2cc(Cl)cc(Br)c2[nH]1` ? 26

What about `O=S1(=O)N=C(CCc2ccc(Br)cc2)Nc2c(Br)cc(Br)cc21` ? 10

Next entry: O=c1ccc2cc(CCC3Nc4c(Br)cc(Br)cc4S(=O)(=O)N3)ccc2[nH]1 (stereo unspecified) 74

Then `O=S1(=O)NC(CCc2ccccc2)=Cc2ccccc21` ? 15

# repeat for `O=C1c2ccc(Br)cc2S(=O)(=O)N1CCc1ccc(O)cc1` 12

---

# targetOrTestSystem: NAD-dependent protein deacetylase sirtuin-1 (Homo sapiens)
# assaySummary: Inhibition of recombinant GST-tagged human SIRT1 at 200 uM using FLUOR DE LYS SIRT1 as substrate preincubated with substrate for 5 mins followed by enzyme addition and measured after 1 hr in presence of NAD+ by fluorescence based assay relative to control
Decide using inhibition: a value greater than or equal to 9% is 1 (yes), a smaller one is 0 (no).

Determine whether measured inhibition meets or exceeds 9% for `CCCCCc1cc(=O)c2cc(Cl)cc(Br)c2o1` 1 (yes)

Could you do the same for `O=S1(=O)N=C(CCc2cccc(Br)c2)Nc2c(Br)cc(Br)cc21` , please? 0 (no)

Same thing, different molecule: O=S1(=O)NC(CCc2ccccc2)Nc2c(Br)cc(Br)cc21 (configuration not stated) 0 (no)

Moving on to `CCOC(=O)CCCN1C(=O)c2ccccc2S1(=O)=O` 0 (no)

How about this molecule: O=S1(=O)NC(CCc2cccc(Br)c2)Nc2c(Br)cc(Br)cc21 (configuration not stated) 1 (yes)

Follow-up entry: `O=c1cc(Cc2ccccc2)[nH]c2c(Br)cc(Cl)cc12` 0 (no)

Try this molecule too: `O=C1c2ccc(Br)cc2S(=O)(=O)N1CCc1ccccc1` 0 (no)

// repeat for CCCCCC1Nc2c(Br)cc(Br)cc2S(=O)(=O)N1 (configuration not stated) and report 0 (no)

Similarly, `O=C1c2ccccc2S(=O)(=O)N1CCc1ccccc1` ? 1 (yes)

What would you report for O=c1ccc2cc(CCC3Nc4c(Br)cc(Br)cc4S(=O)(=O)N3)ccc2[nH]1 (configuration not stated) ? 1 (yes)

Same thing, different molecule: `O=C1c2ccccc2S(=O)(=O)N1CCCc1cccnc1` 1 (yes)

Also need `O=C1c2ccc(Br)cc2S(=O)(=O)N1CCc1ccc(O)cc1` , thanks. 0 (no)
